test: NCI Yeast Anticancer Drug Screen. Data for the sgs1 mgt1 strain (AID 161);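 also: 0% = growth of cultures given vehicle only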; conditions: S. cerevisiae sgs1 mgt1 strain, at 50.0 µM (retest, dose inferred, filed as 5.0)
Compounds without any hit were thinned out: in the full panel of roughly 79,000, 15% have a hit. Active and inactive are the calls of the source. Rule as the data show it: active = growth inhibition above about 70%; inactive = the rest.
# output must be one of active, inactive

In this assay, the call recorded for Cc1ccc2c(c1)C1(SC(CC(=O)O)C(=O)N1c1ccc(Cl)cc1)C(=O)N2 (stereo not drawn) was what?
inactive

What did the test return for NC(=S)NNc1c([N+](=O)[O-])cnn(-c2ccccc2)c1=O ?
inactive

Would you mind telling me which call this test gave CC(=O)[C@H]1CC[C@H]2[C@@H]3CC[C@H]4C[C@@H](N5CCOCC5)CC[C@]4(C)[C@H]3CC[C@]12C ?
active

====

assay: NCI Yeast Anticancer Drug Screen. Data for the mec2-1 strain (AID 157); conditions: S. cerevisiae mec2-1 strain, at 50.0 µM (retest, dose inferred, filed as 5.0), active compounds read high
About 79,000 compounds went through this panel and 15% of them were active in at least one assay; those are over-represented in the sample as a whole. The source made the active and inactive calls. Rule as the data show it: active = growth inhibition above about 70%; inactive = the rest.
VALUE_KIND: growth inhibition

The molecule listed as CC(C)N(C(=O)C12C3C4C1C1C2C3C41I)C(C)C (stereo not given) shows growth inhibition equal to 19% (inactive)

Reported growth inhibition ( NC1=NCN(C2OC(COCc3ccccc3)C(OCc3ccccc3)C2OCc2ccccc2)C(=O)N1 (stereo not given) ) = 28% (inactive)

C1=C(CC2=C[P+](c3ccccc3)(c3ccccc3)C=C(c3ccccc3)O2)OC(c2ccccc2)=C[P+]1(c1ccccc1)c1ccccc1 has a reported growth inhibition of 98% (active)

get_value(item= COC(=O)c1cc(=O)n(-c2ccccc2C(F)(F)F)c(SC)n1 , readout=growth inhibition) returns 92% (active)

// growth inhibition value for O=C(OCc1ccccc1)N1N=NC2C1C1CC(OCc3ccccc3)(OCc3ccccc3)C2O1 (stereo not given) : 2% (inactive)

====

assay: NCI Yeast Anticancer Drug Screen. Data for the bub3 strain (AID 167); conditions: S. cerevisiae bub3 mutant strain, at 50.0 µM
The panel holds about 79,000 compounds, 15% with a hit somewhere; the sample as a whole holds those more often. Activity calls are given as the source filed them. No stated cut-off is given here; in the data, active means growth inhibition above about 70%; inactive means the rest.
Return exactly one item of TRUE for active, FALSE for inactive

Kindly provide the recorded test outcome for the following compound: Cc1c2ccccc2c(C)c2c1cc(F)c1ccccc12
TRUE

Look up the recorded call for CC/C(Cl)=N\OC(=O)Nc1ccc(F)c(Cl)c1 in this test.
TRUE

Please indicate how the test categorized Cc1ccc2c(ccc3ccccc32)c1 .
TRUE

Record lookup: outcome of this test for CCC1=C(C)/C(=C/c2[nH]c(C(Br)Br)c(CC)c2C)N=C1C(Br)Br ?
FALSE

Hi, do you know how Cc1ccc(O)c(C(C)c2ccccc2)c1 (stereo unspecified) came out in this test?
TRUE

What did this assay record as the result for O=C1CC(c2ccccc2)C(c2ccccc2)CO1 (stereo unspecified) ?
TRUE

====

assay: NCI Yeast Anticancer Drug Screen. Data for the cln2 rad14 strain (AID 165);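 also: 0% = growth equal to vehicle treated cultures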; details: S. cerevisiae cln2 rad14 strain, at 5.0 µM (retest, dose inferred, filed as 0.5), active compounds read high
This is part of a sample that, as a whole, favours compounds with a hit. Of some 79,000 tested, about 15% had one in any assay.
VALUE_KIND: growth inhibition (%)
The response must be a number in % with no trailing unit.

The compound listed as CCc1cccc(CC)c1NC(=O)C(C#N)C1=C(Cl)C(=O)c2ccccc2C1=O (stereo not given) has a reported growth inhibition of 36

compound CCCCCCCCCCCCCC(=O)CBr , growth inhibition observed: 2

growth inhibition recorded for this compound, O=C(C(/C=N/C(=S)NCc1ccccc1)=C(/O)c1ccccc1)c1ccccc1 , is -9

Value of measured growth inhibition for the entry C#CC(CC)(CC)N=Cc1cc(Cl)cc(Cl)c1O : 41

Lab note: measured growth inhibition of CC(=O)OC12CCC3C4CC=C5CC(O)CCC5(C)C4C(=O)C3C1(C)N1CC(C)CC(O)C1C2C (stereo not given) was 18

====

experiment: NCI Yeast Anticancer Drug Screen. Data for the sgs1 mgt1 strain (AID 161);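 also: 0% = growth of cultures given vehicle only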; settings: S. cerevisiae sgs1 mgt1 strain, at 50.0 µM
The panel holds about 79,000 compounds, 15% with a hit somewhere; the sample as a whole holds those more often. Active and inactive are the calls of the source. Cut-off read from the data, not from the text of the source: active = growth inhibition above about 70%; inactive = the rest.
Respond using exactly one of the listed classes: yes = active, no = inactive

Recorded test outcome, item CCC(=O)OC1=C(Br)C(=O)c2ccccc2C1=O
yes

How did this test come out for CCc1nc(N)nc(N)c1-c1ccc(N(C)Cc2ccccc2)c([N+](=O)[O-])c1 ?
no

# fetch the recorded call for O=C(O)c1nc2cc(C(F)(F)F)ccc2nc1Nc1ccc(F)cc1 here
yes

Which outcome was entered for the compound CCC(C)(O)Cc1cnccn1 (configuration not stated) in this test?
no

Check the results log: what was the call for CN(C)CCC(/C=C/c1ccccc1)=N\Nc1ccc(Cl)cc1 ?
yes

Please state the recorded outcome for this compound: COC1=CC(=O)C(O)=C/C1=C\C=C\c1ccccc1
yes

Any idea what this test logged for Clc1ccc(N2CCN(CCCN3CCN(c4ccc(Cl)cc4)CC3)CC2)cc1 ?
yes

How did this test come out for O=C(NCCCCCN1CCC2(CCCCC2)CC1)C(c1ccccc1)C1CCCCC1 (configuration not stated) ?
yes

Outcome logged for CCCCCCCCCCCCOCC[N+](CCO)(CCO)Cc1ccccc1 in this assay:
yes

Answer briefly: the call reported for CCCCCCCCCC1OCC(C)O1 (configuration not stated) in this assay.
yes

Tell me the recorded outcome of this test for Clc1ccc(/C=N/Nc2c3ccccc3nc3ccccc23)c(Cl)c1 .
yes

For Cc1ccc(S(=O)(=O)NCCCSCCO)cc1 , which call appears in the assay record?
yes

Per the assay record, what outcome was assigned to O=C(OCc1ccccc1)N1N=NC2C1C1CC(OCc3ccccc3)(OCc3ccccc3)C2O1 (configuration not stated) ?
no

Write down the call the test reported for this compound. Item: CC1C/C(=C\c2ccc(O)c(O)c2)C(=O)/C(=C/c2ccc(O)c(O)c2)C1 (configuration not stated)
no

Record lookup: outcome of this test for CCOc1ccc2c(c1)CCC1C2CCC2(C)CC(O)CC12 (configuration not stated) ?
no

What did this assay record as the result for Brc1ccc2[nH]c3nc4ccc5ccccc5c4nc3c2c1 ?
no

State the result this test recorded for CC(C)(S[S-])S[S-].[Ti].[c-]1[c-][c-][cH-][c-]1.[c-]1[c-][c-][cH-][c-]1 .
yes

====

Give growth inhibition for every item shown.
Assay: NCI Yeast Anticancer Drug Screen. Data for the bub3 strain (AID 167)
Conditions: S. cerevisiae bub3 mutant strain, at 50.0 µM, active compounds read high
Protocol: Growth inhibition of yeast strains with defined genetic alterations is measured as a screen for potential anti-cancer activity. Selected strains with alterations in DNA damage repair or cell cycle control were exposed to compounds and growth inhibition was measured relative to vehicle treated controls. The strain used in this assay is bub3
Compounds without any hit were thinned out: in the full panel of roughly 79,000, 15% have a hit.
Your answer is read as %, so omit the unit and give the number.

Recorded result, COC(=O)/C=C(\C)Nc1ccc(Cc2ccc(Cl)cc2)cc1 , growth inhibition: 97.5

For this compound ( Cc1ccc(C(Cl)(c2ccc(C)cc2)c2ccc(C)cc2)cc1 ), measured growth inhibition is 97.2

Consider CC(O)CCc1nc2ccccc2[nH]1 (stereo unspecified) . Its measured growth inhibition is -6.65

Kindly note the recorded growth inhibition for C=CC1(c2ccc(-c3ccccc3)cc2)OCCO1 , which is 64.1

Value of measured growth inhibition for the entry Cc1ccc(C2(O)c3ccccc3-c3ccccc32)cc1 : 99.3

The compound identified as C/C(=N/NC(=S)Nc1ccc(C)cc1)c1ccccn1 registered its growth inhibition at 90

// recorded growth inhibition for O=[N+]([O-])c1ccccc1C(c1ccc2ccccc2c1O)N1CCOCC1 (stereo unspecified) : 95.8

growth inhibition measured on CCOC(=O)c1csc(=S)[nH]1 = 47

Consider CC(C)Cn1cnc2c(SCc3ccccc3[N+](=O)[O-])nc(N)nc21 . Its measured growth inhibition is 96.8

growth inhibition measured on CC(C)COC(=O)c1ccc(N=Cc2ccc(C=Nc3ccc(C(=O)OCC(C)C)cc3)cc2)cc1 = -20.8

Memo: COc1ccc(/C=C/c2ccc3ccccc3n2)cc1OC , reported growth inhibition: 95.3

====

Hi there, I'd appreciate the recorded growth inhibition for every entry that follows.
assay: NCI Yeast Anticancer Drug Screen. Data for the mlh1 rad18 strain (AID 175); conditions: S. cerevisiae mlh1 rad18 strain growth inhibition; at 50.0 µM (retest, dose inferred, filed as 5.0); active compounds read high
About 79,000 compounds went through this panel and 15% of them were active in at least one assay; those are over-represented in the sample as a whole.
Give your result in % as a bare value.

The compound identified as O=C(c1ccccc1)c1ccc2c(c1Cl)C(=O)c1ccccc1C2=O registered its growth inhibition at 0

CCN(CC)CCNc1cc(C)nc2c1ccc1c2ccc2c(NCCN(CC)CC)cc(C)nc21 has a reported growth inhibition of 97

The value of growth inhibition measured for the compound O=C(O)Cc1cccc2cc3c(ccc4ccccc43)cc12 turned out to be 44

# growth inhibition of CC1CCC(C(O)(C(=O)O)C2CCC(C)CC2)CC1 (stereo not given) = 23

growth inhibition measured on CCOc1ccccc1/C=C1\NC(=O)N(/C=C2\C(=O)Oc3ccccc3C2=O)C1=O = 89

Lab note: O=c1ccc([N+](=O)[O-])c[nH]1.[Ag] gave growth inhibition of 97

Lookup result for Oc1ccc(O)c(C2CCCCC2)c1 ; measured growth inhibition: 99

get_value(item= CCN(CC)c1ccc2nc3ccc(N(CC)CC)cc3[n+](-c3ccccc3)c2c1 , readout=growth inhibition) returns 99

growth inhibition measured on CCC[CH2][Sn]([CH2]CCC)([O]C(=O)C(OC)c1ccccc1)[O]C(=O)C(OC)c1ccccc1 (stereo not given) = 98

GET /value?item= Oc1cc(Cl)cc2c1-c1ccc(Cl)cc1C2O (stereo not given) &field=growth inhibition returns 98

Consider COC(=O)c1cc(-c2ccc(C)cc2)c2c(=O)n(-c3ccccc3)[nH]c2n1 . Its measured growth inhibition is 85

Looking up CC1CCCCC12C(C#N)(C#N)C2(C#N)C#N (stereo not given) , I found its growth inhibition recorded as 98

# growth inhibition of S=c1[nH]nc(Nc2ccccc2Cl)s1 = -8

Measured growth inhibition of O=[N+]([O-])c1ccc(CO)o1 : 33

Note to self: growth inhibition recorded for CCCCOCN(CC(CC)CCCC)CC(CC)CCCC (stereo not given) was 37

Given item Cc1cccc(NC(=O)c2cc3cc(N=Nc4ccccc4Cl)ccc3oc2=O)c1 , the value recorded as its growth inhibition is 7

So, Cc1ccccc1NC(=O)Cc1csc(N=Nc2c(O)[nH]c3ccccc23)n1 ? Its growth inhibition was 17

// field: growth inhibition; key: COC(=O)C(O)(/C(=N\O)c1ccccc1)c1ccccc1 (stereo not given) ; value = -2

growth inhibition for Cc1ccc(S(=O)(=O)OCC(C)(C)C)cc1 is -127

Per the records, this compound ( C[n+]1c(-c2ccc(/C=N\NC(=O)c3cccc(C(=O)N/N=C/c4ccc(-c5cn6ccccc6[n+]5C)cc4)c3)cc2)cn2ccccc21 ) has growth inhibition equal to 99

Sure, the documented growth inhibition for CC(=O)Oc1ccccc1N(C(C)=O)S(=O)(=O)c1ccc(C)cc1 is 99

Reported growth inhibition ( O=C(CNc1ccccc1[N+](=O)[O-])Nn1c(-c2ccccc2)nc2ccccc2c1=O ) = 48

Recorded result, Cc1nc2c(cnn2C)cc1CCc1ccccc1 , growth inhibition: 39

The measured growth inhibition associated with Cc1cc(N=Nc2ccccc2)ccc1O reads 99

Looking up O=C1c2ccc3c4ccccc4n(Cc4ccccc4)c3c2C(=O)N1c1ccccc1 , I found its growth inhibition recorded as 47

Entry O=[N+]([O-])c1ccccc1C(c1ccc2ccccc2c1O)N1CCOCC1 (stereo not given) , growth inhibition reported as 97

Looking up COc1ccccc1NC(=O)C1=CNC(C)=C(C(=O)Nc2ccccc2OC)C1/C=C/c1ccccc1 (stereo not given) , I found its growth inhibition recorded as 7

Short answer for Cc1ccc2c(C3Cc4ccccc4N3C(=O)/C=C\C(=O)O)c(C)[nH]c2c1 (stereo not given) : growth inhibition was 95

# compound CCOC1(OCC)Cc2nc3ccccc3cc21 ; its growth inhibition = 95

The measured growth inhibition associated with C[CH2][Sn]([CH2]C)([O]C(=O)c1ccccc1OC)[O][Sn]([CH2]C)([CH2]C)[O]C(=O)c1ccccc1OC reads 84

Nn1c2ccccc2c2ccccc21 yielded growth inhibition of 6

Input Cc1c(N=Nc2ccccc2Cl)c(-c2ccccc2)nn1C(=S)S . Output growth inhibition: 93

The compound listed as O=C(O)CSc1cc2c3ccccc3sc2c2ccccc12 shows growth inhibition equal to 97

Record summary for CC1SC2(C(=O)Nc3ccc([N+](=O)[O-])cc32)N(c2ccc(Cl)cc2)C1=O (stereo not given) : reported growth inhibition = 98

Item: CC(=O)c1c2c(cc3c1CC1(C3)Cc3cc4c(c(C(=O)O)c3C1)CCC4)CCC2 (stereo not given) | growth inhibition: 96

Form: compound = Cc1cc(NS(=O)(=O)c2ccc(N)cc2)no1.[Ag] ; growth inhibition = 99

// CN1/C(=C/C=C/C(I)=C/C=C/C2=[N+](C)c3ccccc3C2(C)C)C(C)(C)c2ccccc21 : growth inhibition value = 89

Clc1ccc(C2SCc3nc4ccccc4n32)cc1Cl (stereo not given) has a reported growth inhibition of 96

growth inhibition reading for Oc1cc(Br)cc2cc(Cl)cnc12 : 81

According to the records, this compound c1cc(CCSSCCc2ccncc2)ccn1 displays growth inhibition of 92
